# Test system: Escherichia coli JUHL
# method_notes: Assay B: in vitro antibacterial activity, broth microdilution MIC (NCCLS)
# Type: cell-based
# reported_conditions: Table 2, Assay B, cation-adjusted Mueller Hinton broth, 35° C., 16 to 20 hr; code D = Escherichia coli JUHL; unit assumed
endpoint_label: Antibacterial Activity (MIC's), D (µg/mL)

[1] COc1c(-c2cc3c(s2)C(N)C(F)(F)CC3)ccc2c(=O)c(C(=O)O)cn(C3CC3)c12.Cl (stereo not shown)
[2] COc1c(-c2cc3c(s2)C(N)CNC3)ccc2c(=O)c(C(=O)O)cn(C3CC3)c12 (stereo not shown)
[3] COc1c(-c2cc3c(s2)CCCC3N)c(F)cc2c(=O)c(C(=O)O)cn(C3CC3)c12.Cl (stereo not shown)
[4] COc1c(-c2cc3c(s2)CCCC3NCCO)ccc2c(=O)c(C(=O)O)cn(C3CC3)c12.Cl (stereo not shown)
[5] COc1c(-c2cc3c(s2)S(=O)(=O)CCC3O)ccc2c(=O)c(C(=O)O)cn(C3CC3)c12 (stereo not shown)
## Input Order the records by Antibacterial Activity (MIC's), D, with each subsequent value no larger than the one before. Answer by listing the labels in the requested order.
## Output 5, 1, 4, 2, 3

[P] COc1c(-c2cc3c(s2)CCCC3=NN2CCN(C)CC2)ccc2c(=O)c(C(=O)O)cn(C3CC3)c12
[Q] CNC1CCCc2sc(-c3c(F)cc4c(=O)c(C(=O)O)cn(C5CC5)c4c3F)cc21.Cl (stereo not shown)
[R] CNC1CCCc2sc(-c3c(F)cc4c(=O)c(C(=O)O)cn(C5CC5)c4c3C)cc21.Cl (stereo not shown)
## Input Given 3 compounds, produce a descending ranking by Antibacterial Activity (MIC's), D. // format: requested-order list of labels
## Output P, R, Q
(P: 1 µg/mL, R: 0.06 µg/mL, Q: 0.03 µg/mL)

[P] COc1c(-c2cc3c(s2)CCCC3CN(C)C)ccc2c(=O)c(C(=O)O)cn(C3CC3)c12 (stereo not shown)
[Q] O=C(O)c1cn(C2CC2)c2c(Cl)c(-c3cc4c(s3)C(O)CCC4)ccc2c1=O (stereo not shown)
## Input Identify the entry with the larger Antibacterial Activity (MIC's), D. Options: P and Q Mark your selection by writing its label.
## Output P
(P: 1 µg/mL, Q: 0.125 µg/mL)

====

# Test system: Escherichia coli JUHL
# method_notes: Assay B: in vitro antibacterial activity, broth microdilution MIC (NCCLS)
# Type: cell-based
# reported_conditions: Table 2, Assay B, cation-adjusted Mueller Hinton broth, 35° C., 16 to 20 hr; code D = Escherichia coli JUHL; unit assumed
endpoint_label: Antibacterial Activity (MIC's), D (µg/mL)

COc1c(-c2cc3c(s2)CCC(CN)C3)ccc2c(=O)c(C(=O)O)cn(C3CC3)c12.Cl (stereo not shown) :: 0.125
CC1(C)CCc2cc(-c3ccc4c(=O)c(C(=O)O)cn(C5CC5)c4c3Cl)sc2C1N.Cl (stereo not shown) :: 0.25
Cc1c(F)c(-c2cc3c(s2)CCCC3N)nc2c1c(=O)c(C(=O)O)cn2C1CC1.Cl (stereo not shown) :: 0.06
O=C(O)c1cn(C2CC2)c2cc(-c3cc4c(s3)C(O)CCC4)ccc2c1=O (stereo not shown) :: 0.125
CON=C1Cc2cc(-c3ccc4c(=O)c(C(=O)O)cn(C5CC5)c4c3OC)sc2C1 :: 2

[a] COc1c(-c2cc3c(s2)CCC/C3=N\OCc2cccnc2)ccc2c(=O)c(C(=O)O)cn(C3CC3)c12
[b] COc1c(-c2cc3c(s2)C(N)C(C)(C)CC3)c(F)cc2c(=O)c(C(=O)O)cn(C3CC3)c12.Cl (stereo not shown)
## Input Rank a against b by their Antibacterial Activity (MIC's), D values and give the higher one. Mark your selection by writing its label.
## Output a
(a: 1 µg/mL, b: 0.25 µg/mL)

====

# Test system: Staphylococcus aureus ATCC 6538P
# method_notes: Assay A: in vitro antibacterial activity, agar dilution MIC
# Format: cell-based
# reported_conditions: Table 1, Assay A, BHI agar, 35-37° C., about 20 to 24 hours; code A = Staphylococcus aureus ATCC 6538P; unit assumed
endpoint_label: Antibacterial Activity (MIC's), A (µg/mL)

O=C(O)c1cn(C2CC2)c2nc(-c3cc4c(s3)CCCC4O)c(F)cc2c1=O (centres unmarked) [Example 35] :: 0.05
COc1c(-c2cc3c(s2)CCCC3N)ccc2c(=O)c(C(=O)O)cn(C3CC3)c12.Cl (centres unmarked) [Example 40] :: 0.02
Br.CC1Cc2sc(-c3ccc4c(=O)c(C(=O)O)cn(C5CC5)c4c3)cc2CN1 (centres unmarked) [Example 13] :: 0.1

[1] CC1NCCc2cc(-c3ccc4c(=O)c(C(=O)O)cn(C5CC5)c4c3OC(F)F)sc21.Cl (centres unmarked) [Example 52]
[2] COc1c(-c2cc3c(s2)CC(O)C3)ccc2c(=O)c(C(=O)O)cn(C3CC3)c12 (centres unmarked) [Example 45]
[3] O=C1CCCc2sc(-c3nc4c(cc3F)c(=O)c(C(=O)O)cn4C3CC3)cc21 [Example 48]
[4] COc1c(-c2cc3c(s2)CC(O)CC3)ccc2c(=O)c(C(=O)O)cn(C3CC3)c12 (centres unmarked) [Example 47]
[5] Cl.O=C(O)c1cn(C2CC2)c2nc(-c3cc4c(s3)CNCC4)c(F)cc2c1=O [Example 9]
## Input Give the ascending ranking of the items by reported Antibacterial Activity (MIC's), A. Please, when replying, give the labels in the order that was requested.
## Output 4, 3, 2, 5, 1

====

# Tested on: Escherichia coli JUHL
# method_notes: Assay B: in vitro antibacterial activity, broth microdilution MIC (NCCLS)
# Format: cell-based
# reported_conditions: Table 2, Assay B, cation-adjusted Mueller Hinton broth, 35° C., 16 to 20 hr; code D = Escherichia coli JUHL; unit assumed
endpoint_label: Antibacterial Activity (MIC's), D (µg/mL)

Would you please look over these solved cases?
COC(=O)NC1Cc2cc(-c3ccc4c(=O)c(C(=O)O)cn(C5CC5)c4c3OC)sc2C1 (stereo not shown) :: 2
COc1c(-c2cc3c(s2)CCC(C)(CO)C3=O)ccc2c(=O)c(C(=O)O)cn(C3CC3)c12 (stereo not shown) :: 1

[I] COc1c(-c2cc3c(s2)CCCC3)ccc2c(=O)c(C(=O)O)cn(C3CC3)c12
[II] CNC1CCCc2sc(-c3cc4c(cc3F)c(=O)c(C(=O)O)cn4C3CC3)cc21.Cl (stereo not shown)
## Input Lower value for measured Antibacterial Activity (MIC's), D? Options: I , II Choose, then provide that item's label.
## Output II
(II: 0.03 µg/mL, I: 1 µg/mL)

====

# Tested on: Haemophilus influenzae DILL AMP R
# method_notes: Assay A: in vitro antibacterial activity, agar dilution MIC
# Format: cell-based
# reported_conditions: Table 1, Assay A, BHI agar, 35-37° C., about 20 to 24 hours; code E = Haemophilus influenzae DILL AMP R; unit assumed
endpoint_label: Antibacterial Activity (MIC's), E (µg/mL)

Solved cases below.
O=C1CCCc2sc(-c3nc4c(cc3F)c(=O)c(C(=O)O)cn4C3CC3)cc21 [Example 48] :: 0.06
Br.CC1(C)CNCc2cc(-c3ccc4c(=O)c(C(=O)O)cn(C5CC5)c4c3OC(F)F)sc21 [Example 28] :: 0.25
Cl.O=C(O)c1cn(C2CC2)c2nc(-c3cc4c(s3)CNCC4)c(F)cc2c1=O [Example 9] :: 0.06
COc1c(-c2cc3c(s2)CCCC3N)ccc2c(=O)c(C(=O)O)cn(C3CC3)c12.Cl (stereo not drawn) [Example 40] :: 0.06
COc1c(-c2cc3c(s2)CCNC3)ccc2c(=O)c(C(=O)O)cn(C3CC3)c12.Cl [Example 2] :: 0.12

[a] CC1NCCc2cc(-c3ccc4c(=O)c(C(=O)O)cn(C5CC5)c4c3OC(F)F)sc21.Cl (stereo not drawn) [Example 52]
[b] COc1c(-c2cc3c(s2)SCCC3N)ccc2c(=O)c(C(=O)O)cn(C3CC3)c12.Cl (stereo not drawn) [Example 37]
[c] O=C(O)c1cn(C2CC2)c2nc(-c3cc4c(s3)CCCC4O)c(F)cc2c1=O (stereo not drawn) [Example 35]
## Input List from greatest to least Antibacterial Activity (MIC's), E. Field: ranking. Enter the labels in the order requested.
## Output a, b, c

====

# Test system: Escherichia coli JUHL
# method_notes: Assay B: in vitro antibacterial activity, broth microdilution MIC (NCCLS)
# Assay type: cell-based
# reported_conditions: Table 2, Assay B, cation-adjusted Mueller Hinton broth, 35° C., 16 to 20 hr; code D = Escherichia coli JUHL; unit assumed
endpoint_label: Antibacterial Activity (MIC's), D (µg/mL)

O=C(O)c1cn(C2CC2)c2c(OC(F)F)c(-c3cc4c(s3)CCCC4O)ccc2c1=O (stereo not drawn) [Example 99] :: 0.25
COc1c(-c2cc3c(s2)CCCC3CN2CCOCC2)ccc2c(=O)c(C(=O)O)cn(C3CC3)c12 (stereo not drawn) [Example 126] :: 16
COc1c(-c2cc3c(s2)C(N)CCC3(C)C)ccc2c(=O)c(C(=O)O)cn(C3CC3)c12.Cl (stereo not drawn) [Example 222] :: 1
Cl.NC1CCCc2sc(-c3ccc4c(=O)c(C(=O)O)cn(C5CC5)c4c3OC(F)F)cc21 (stereo not drawn) [Example 101] :: 0.125
COc1c(-c2cc3c(s2)CCCC3=NN(C)C(N)=S)ccc2c(=O)c(C(=O)O)cn(C3CC3)c12 [Example 105] :: 1

[I] COc1c(-c2cc3c(s2)CCCC3N2CC(O)C2)ccc2c(=O)c(C(=O)O)cn(C3CC3)c12.Cl (stereo not drawn) [Example 198]
[II] CNC1CCCc2sc(-c3ccc4c(=O)c(C(=O)O)cn(C5CC5)c4c3OC)cc21.Cl (stereo not drawn) [Example 77]
## Input So which one has the bigger Antibacterial Activity (MIC's), D here, I or II ? Your answer should be the label attached to the chosen record.
## Output I
(I: 0.5 µg/mL, II: 0.25 µg/mL)

[1] COc1c(-c2cc3c(s2)CCC(C)C3O)ccc2c(=O)c(C(=O)O)cn(C3CC3)c12 (stereo not drawn) [Example 185]
[2] Cc1c(-c2cc3c(s2)CCCC3N)c(F)cc2c(=O)c(C(=O)O)cn(C3CC3)c12.Cl (stereo not drawn) [Example 321]
## Input Of 1 and 2 , which shows the smaller Antibacterial Activity (MIC's), D value? Your answer should be the label of the entry you select.
## Output 2
